Where these numbers come from: paper PMC10663540

Record: IC50 reported on human CTSL (Homo sapiens, UniProt P07711).
Sequence (P07711 114-333): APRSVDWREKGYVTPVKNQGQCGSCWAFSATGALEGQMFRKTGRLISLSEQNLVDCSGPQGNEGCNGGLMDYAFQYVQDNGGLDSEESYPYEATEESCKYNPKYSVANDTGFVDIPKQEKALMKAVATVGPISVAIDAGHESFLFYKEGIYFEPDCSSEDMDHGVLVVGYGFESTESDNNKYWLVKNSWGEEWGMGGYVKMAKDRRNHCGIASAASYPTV
# number only, unit nM dropped from output

[ask] Please report the recorded IC50 for CCOC(=O)C1OC1C(=O)NC(CC(C)C)C(=O)NCCC(C)C (centres unmarked) [E64d] .
[reply] 88.9

[ask] Another compound to look at: `NC(N)=Nc1ccc(C(=O)OCCN2CCN(C(=O)N[C@@H](Cc3ccccc3)C(=O)N[C@H](/C=C/S(=O)(=O)c3ccccc3)CCc3ccccc3)CC2)cc1`
[reply] 2.13

* * *

Experiment: in vitro
Conditions: human
reported property: CC50 (µM)
# number only, unit µM dropped from output

Examples with their reported CC50 follow.
1) CN(C)C(=O)COC(=O)Cc1ccc(OC(=O)c2ccc(NC(=N)N)cc2)cc1	173
2) CN1CCN(C(=O)N[C@@H](Cc2ccccc2)C(=O)N[C@H](/C=C/S(=O)(=O)c2ccccc2)CCc2ccccc2)CC1	110
3) CC(C)(NS(=O)(=O)c1ccc2c(Cl)cnc(N=C(N)N)c2c1)C(=O)O	172
4) NC(N)=Nc1ccc(C(=O)OCCN2CCN(C(=O)N[C@@H](Cc3ccccc3)C(=O)N[C@H](/C=C/S(=O)(=O)c3ccccc3)CCc3ccccc3)CC2)cc1	347

Now for another entry.
[ask] Please report the recorded CC50 for `N=C(N)c1ccc2cc(OC(=O)c3ccc(N=C(N)N)cc3)ccc2c1` .
[reply] 452

* * *

Test system: SARS-CoV-2-S pseudotyped virus Omicron BA.2
Experiment: microbe, parasite or virus in culture
Type: cell-based
Conditions: Severe acute respiratory syndrome coronavirus 2, Huh-7; read-out: Antiviral efficacy EC50 (95% CI)
reported property: EC50 (nM)
# number only, unit nM dropped from output

[ask] Please report the recorded EC50 for `NC(N)=Nc1ccc(C(=O)OCCN2CCN(C(=O)N[C@@H](Cc3ccccc3)C(=O)N[C@H](/C=C/S(=O)(=O)c3ccccc3)CCc3ccccc3)CC2)cc1` .
[reply] 5.7
